These measurements were taken from PubChem BioAssay (NCI).

tested on: ACHN renal; experiment: NCI tumour cell line growth inhibition, 48 h
This section presents compounds with their documented TGI values.

Use these answered entries as a reference point.
NC(=O)C(c1ccccc1)N1OC2C(=O)N(c3ccccc3)C(=O)C2C1c1c2ccccc2c(Cl)c2ccccc12 (stereo not drawn) : > 100 µM
OCc1ccc(N2CCC2c2ccc(F)cc2)cc1Cl (stereo not drawn) : > 100 µM
CCOC(=O)c1c2ccccc2n2c(N)c(C(N)=O)nnc12 : 26.6 µM
Cc1coc2c1CC1(C)C(CCC(O)C1C)C2 (stereo not drawn) : > 100 µM
c1ccc2cc(-c3cc(-c4cc(-c5ccc6ccccc6c5)on4)no3)ccc2c1 : > 100 µM

Qu. Report TGI for Oc1cccc2c(Cl)ccnc12 please.
Ans. > 47.7 µM

Qu. Same thing, different compound: Cc1cn(C2CC(n3cc(Cn4cc(I)c(=O)[nH]c4=O)nn3)C(CO)O2)c(=O)[nH]c1=O (stereo not drawn)
Ans. > 100 µM

Qu. Same thing, different compound: CC1C=C(CCCCCCCCCCCC[C@@H](O)[C@@H]2CC[C@@H]([C@@H]3CC[C@@H](C(O)CCCCCCCCCCCCC4=C[C@H](C)OC4=O)O3)O2)C(=O)O1 (stereo partly drawn)
Ans. > 100 µM
